# System: Saccharomyces cerevisiae;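 further: PSI is a weighted mean of sequencing reads over stability bins, variants kept only with over 10 reads, mCherry proximal and sfGFP distal, peptide attached via GGGS linker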
# Assay Procedure: protein stability index of tFT-peptide fusion (C-terminal peptide) (PSI (0-1 scale)); higher = more stable (slower turnover)
# Test Settings: genetic background: wild type; temperature: 30 C
Readout Label: protein stability index

INSERT INTO assay_data (biosequence, measured_result) VALUES
  ('SSASSLTIYTRG', 0.728),
  ('CRTGHCRLTSKM', 0.708),
  ('PVSPLFWSAKRL', 0.711),
  ('PSQTTRSPPPPP', 0.708),
  ('RTQKNMKKSYCG', 0.63),
  ('CTIAPSIFFTRG', 0.704),
  ('SPSPPSNPLPSP', 0.701),
  ('VGGWGERGRGGS', 0.696),
  ('VDFGTLISEDRM', 0.736),
  ('LYPPVYRPVLSL', 0.663),
  ('RSPIRYPPVVLS', 0.518),
  ('GRGSGIAMGVWV', 0.801),
  ('RCPLSFLRCSMA', 0.586),
  ('GIIDGGTISRNK', 0.692),
  ('KHCFDIEILRYQ', 0.664),
  ('LFHRAVVGRVRP', 0.634),
  ('IVPPPHRHRRSI', 0.824),
  ('FWGRYIGRDRGT', 0.62),
  ('FCCFFPFLWRVF', 0.378);
